Catalogue of pIC50 readings, one per entry.
target: proteasome (Homo sapiens); construct: The obtained high molecular fraction (molecular weight >500K) was used as an enzyme solution for the detection of proteasome activity; endogenous in cells; host or cells: HeLa S3 cells: homogenate, 100,000G supernatant, >500K fraction from Centricon-500; test: Proteasome inhibitory activity (Suc-Leu-Leu-Val-Tyr-AMC cleavage, crude enzyme solution from HeLa S3 cell extract); format: biochemical; conditions: crude proteasome fraction (>500K) from HeLa S3 cells; substrate Suc-Leu-Leu-Val-Tyr-AMC; 37°C for one hour
pIC50: −log10 of the molar value.
propertyName: pIC50

- molecule: "CC(C)CC1C(=O)OC1C(=O)NCC(NC(=O)OC(C)(C)C)C(=O)OCc1ccccc1 (stereo not shown) [Compound 47]"
  propertyName: "pIC50"
  measuredNumber: 6.82
- molecule: "CCC(C)C1C(=O)OC1C(=O)NC1CC1CC(NC(=O)C(C)NC(=O)OC(C)(C)C)C(=O)OCC1CCCCC1 (stereo not shown) [Compound 14]"
  propertyName: "pIC50"
  measuredNumber: 7.74
- molecule: "CCC(C)C1C(=O)OC1C(=O)NC1CC1CC1NC(=O)C(C)NC1=O (stereo not shown) [Compound 44]"
  propertyName: "pIC50"
  measuredNumber: 7.33
- molecule: "COc1ccc(CC(NC(=O)OC(C)(C)C)C(=O)OCc2ccccc2)cc1NC(=O)C1OC(=O)C1CC(C)C (stereo not shown) [Compound 81]"
  propertyName: "pIC50"
  measuredNumber: 6.30

----------
molecular target: proteasome (Homo sapiens, UniProt P28074); construct: The obtained high molecular fraction (molecular weight >500K) was used as an enzyme solution for the detection of proteasome activity; endogenous in cells; host or cells: HeLa S3 cells: homogenate, 100,000G supernatant, >500K fraction from Centricon-500; test: Proteasome inhibitory activity (Suc-Leu-Leu-Val-Tyr-AMC cleavage, crude enzyme solution from HeLa S3 cell extract); format: biochemical; settings: crude proteasome fraction (>500K) from HeLa S3 cells; substrate Suc-Leu-Leu-Val-Tyr-AMC; 37°C for one hour; read-out: IC50
pIC50: −log10 of the molar value.
propertyName: pIC50

- compound: "CCCCOC(=O)C(CC1CC1NC(=O)C1OC(=O)C1C(C)CC)NC(=O)C(C)NC(=O)OC(C)(C)C (stereo not shown)"
  assayedSystem: "proteasome (Homo sapiens, UniProt P28074)"
  propertyName: "pIC50"
  measuredNumber: 7.72
- compound: "CCC(C)C1C(=O)OC1C(=O)NC1CC1CC(NC(=O)C(C)NC(=O)OC(C)(C)C)C(=O)OCc1ccccc1 (stereo not shown)"
  assayedSystem: "proteasome (Homo sapiens, UniProt P28074)"
  propertyName: "pIC50"
  measuredNumber: 7.82
- compound: "CCC(C)C1C(=O)OC1C(=O)NC1CC1CC(NC(=O)C(C)N)C(=O)O (stereo not shown) [UCK14A1, reference compound]"
  assayedSystem: "proteasome (Homo sapiens, UniProt P28074)"
  propertyName: "pIC50"
  measuredNumber: 6.40
- compound: "CCC(C)C1C(=O)OC1C(=O)NC1CC1CC(NC(=O)C(C)NP(=O)(c1ccccc1)c1ccccc1)C(=O)OCc1ccccc1 (stereo not shown)"
  assayedSystem: "proteasome (Homo sapiens, UniProt P28074)"
  propertyName: "pIC50"
  measuredNumber: 7.92
- compound: "CCC(C)C1C(=O)OC1C(=O)NC1CC1CC(NC(=O)C(C)NC(=O)OCc1ccc(Br)cc1)C(=O)OCc1ccccc1 (stereo not shown)"
  assayedSystem: "proteasome (Homo sapiens, UniProt P28074)"
  propertyName: "pIC50"
  measuredNumber: 8.30
- compound: "CCC(C)C1C(=O)OC1C(=O)NC1CC1CC(NC(=O)C(C)N)C(=O)NCc1ccccc1 (stereo not shown)"
  assayedSystem: "proteasome (Homo sapiens, UniProt P28074)"
  propertyName: "pIC50"
  measuredNumber: 7.96
- compound: "CC(C)CC1C(=O)OC1C(=O)NCCCCC(NC(=O)OC(C)(C)C)C(=O)OCc1ccccc1 (stereo not shown)"
  assayedSystem: "proteasome (Homo sapiens, UniProt P28074)"
  propertyName: "pIC50"
  measuredNumber: 7.30
